- Tested on: NCI-H23 lung
- Run Description: NCI tumour cell line growth inhibition, 48 h
Metric Name: TGI

Examples with answers:
INSERT INTO results (molecule, metric_name, observed_value) VALUES
  ('CC1(C)OC2OC(COC(=O)C(c3ccccc3)c3ccccc3)C3OC(C)(C)OC3C2O1 (stereo not given)', 'TGI', '> 100 µM'),
  ('CCN(CC)Cc1ccc(Nc2c3ccccc3nc3ccccc23)cc1', 'TGI', '4.52 µM'),
  ('NNC(=O)N/N=C1\CNC(=O)C(=O)C1c1nc2ccccc2s1 (stereo not given)', 'TGI', '> 100 µM'),
  ('Cc1cn2c(/C=C3/C(=O)Nc4ccc(C(=O)O)cc43)c(C)nc2s1', 'TGI', '> 100 µM'),
  ('O=C1c2ccccc2-n2c1nc1ccc(Cl)cc1c2=O', 'TGI', '> 100 µM'),
  ('COc1cc(OC)c(/C=C/C(=O)c2c(N)cc(OC)cc2OC)c(OC)c1', 'TGI', '> 100 µM'),
  ('O=C1Nc2ccccc2C1S(=O)(=O)c1ccccc1 (stereo not given)', 'TGI', '> 100 µM'),
  ('Nc1c(C(=O)Nc2ccccn2)sc2nc3c(cc12)CCCCCC3', 'TGI', '> 50 µM'),
  ('COc1cccc2c1[C@H]1OC(=O)NC1CCCCC2 (stereo not given in full)', 'TGI', '> 100 µM');

Next item in the queue.
Suppose we examine the molecule CCN(CC)C(=O)CCCCCn1c2ccccc2c2c3c(c4c5ccccc5[nH]c4c21)C(=O)N(O)C3=O ; what TGI value has been reported? 47.3 µM
